biological target: OCT2 (Homo sapiens); test: Inhibition of OCT2-mediated [3H]MPP+ uptake in HEK-OCT2 cells; settings: test drug 200 µM; MPP+ 50 μM; 3 min; net uptake HEK-OCT2 minus HEK-VC
Measured Quantity: % Inhibition of OCT2-dependent MPP+ uptake at 200 µM (mean ± SEM) (%)
Give bare numbers, in %.

[
  {
    "Molecule": "OCCN1CCN(CCCN2c3ccccc3Sc3ccc(C(F)(F)F)cc32)CC1",
    "Assay Result": 94.3
  },
  {
    "Molecule": "C[C@H]1c2cccc(O)c2C(=O)C2=C(O)[C@]3(O)C(=O)C(C(N)=O)=C(O)[C@@H](N(C)C)[C@@H]3[C@@H](O)[C@@H]21",
    "Assay Result": -16.6
  },
  {
    "Molecule": "OC(CNCC(O)C1CCc2cc(F)ccc2O1)C1CCc2cc(F)ccc2O1 (centres unmarked)",
    "Assay Result": 43.2
  },
  {
    "Molecule": "CC(C)n1c(/C=C/C(O)CC(O)CC(=O)O)c(-c2ccc(F)cc2)c2ccccc21 (centres unmarked)",
    "Assay Result": 5.8
  }
]

# evaluate next
Task: Look up and state reported % Inhibition of OCT2-dependent MPP+ uptake at 200 µM (mean ± SEM) for CC(C)Cc1ccc(C(C)C(=O)O)cc1 (centres unmarked)
Result: -0.3

###

target: OCT2 (Homo sapiens, UniProt O15244); test: in vitro; details: human, pH 7.3
Sequence (O15244 whole entry): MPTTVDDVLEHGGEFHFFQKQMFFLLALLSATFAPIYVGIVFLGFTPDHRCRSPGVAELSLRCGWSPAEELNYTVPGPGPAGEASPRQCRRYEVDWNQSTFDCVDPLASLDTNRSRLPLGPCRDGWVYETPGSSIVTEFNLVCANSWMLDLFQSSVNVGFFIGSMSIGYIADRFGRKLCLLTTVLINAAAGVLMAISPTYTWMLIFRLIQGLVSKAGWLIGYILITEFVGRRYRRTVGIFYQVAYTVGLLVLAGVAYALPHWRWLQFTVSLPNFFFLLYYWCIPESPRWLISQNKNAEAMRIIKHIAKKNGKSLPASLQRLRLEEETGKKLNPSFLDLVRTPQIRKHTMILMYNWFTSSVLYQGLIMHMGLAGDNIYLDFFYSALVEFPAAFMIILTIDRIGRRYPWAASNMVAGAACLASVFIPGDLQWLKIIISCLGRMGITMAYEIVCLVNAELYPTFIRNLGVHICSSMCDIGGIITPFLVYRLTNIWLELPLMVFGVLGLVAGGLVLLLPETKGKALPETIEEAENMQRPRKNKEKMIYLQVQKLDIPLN
Lab note: compare % Inhibition of OCT2-dependent MF uptake at 20 µM (mean ± SEM) against 80. Equal or greater, write yes (1). Smaller, write no (0).

[
  {
    "Compound": "CN[C@H]1CC[C@@H](c2ccc(Cl)c(Cl)c2)c2ccccc21 [Sertraline]",
    "Class Name": "yes (1)"
  }
]

Task: Has Cc1c(OCC(F)(F)F)ccnc1C[S+]([O-])c1nc2ccccc2[nH]1 (stereo not drawn) [Lansoprazole] a recorded % Inhibition of OCT2-dependent MF uptake at 20 µM (mean ± SEM) greater than or equal to 80?
Result: yes (1)

###

target: UniProt O15244; test: in vitro; settings: human, pH 7.3
Measured Quantity: % Inhibition of OCT2-dependent MF uptake at 200 µM (mean ± SEM)
Answers are plain numbers.

Answered examples (7):
[
  {
    "Compound": "Cc1ccc(-c2ncc(Cl)cc2-c2ccc(S(C)(=O)=O)cc2)cn1",
    "Assay Result": 99.2
  },
  {
    "Compound": "COc1cc2nc(N3CCN(C(=O)C4COc5ccccc5O4)CC3)nc(N)c2cc1OC (stereo not drawn)",
    "Assay Result": 92.1
  },
  {
    "Compound": "CC(C)Cc1ccc(C(C)C(=O)O)cc1 (stereo not drawn)",
    "Assay Result": 29.6
  },
  {
    "Compound": "Cc1ccc(-c2nc3ccc(C)cn3c2CC(=O)N(C)C)cc1",
    "Assay Result": 99.1
  },
  {
    "Compound": "CCOC(=O)[N-]c1cn(N2CCOCC2)n[o+]1",
    "Assay Result": 69.5
  },
  {
    "Compound": "Fc1ccc([C@@H]2CCNC[C@H]2COc2ccc3c(c2)OCO3)cc1",
    "Assay Result": 99.6
  },
  {
    "Compound": "C=C1CC[C@H](O)C/C1=C/C=C1\\CCC[C@]2(C)[C@@H]([C@H](C)CCCC(C)C)CC[C@@H]12",
    "Assay Result": 17.1
  }
]

As a next step, examine the compound that follows.
Task: Complete the entry with % Inhibition of OCT2-dependent MF uptake at 200 µM (mean ± SEM) for Cc1ncsc1CCCl
Result: 28.7

// provenance: paper PMC4556614
